Data origin: patent US20060057156A1

# Test system: PBMC from EBV seropositive donors
# Format: cell-based, human
# CONDITION DESCRIPTION: EBV seropositive donors; peptides at 15 μg/ml; ELISA five days after stimulation
QUANTITY KIND: IL-10 secretion by PBMC

Check out these entries, answers already filled in.
1. LILLIIALYLQQNWWTLLVD [P31]: IL-10 inducing
2. PRGPPLSSSLGLALLLLLLA [P4]: IL-10 inducing
3. ILIIFIFRRDLLCPLGALCI [P14]: shown to induce IL-10
4. FLGIVLFIFGCLLVLGIWIY [P22]: IL-10 inducing
5. LLFWLYIVMSDWTGGALLVL [P8]: shown to induce IL-10

GET /values?readout=IL-10 secretion by PBMC&item= LLLLALLFWLYIVMSDWTGG [P7]
IL-10 inducing

Try LFIFGCLLVLGIWIYLLEML [P23] next.
IL-10 inducing

Input LLLMITLLLIALWNLHGQAL [P18]
IL-10 inducing

Item: LLWLLLFLAILIWMYYHGQR [P35]
IL-10 inducing
